# System: THP-1
# assay.comment: cells
# measurement.setup: Homo sapiens
# Description: Antiinflammatory activity in LPS-induced human THP-1 cells assessed as inhibition of IL-6 release pretreated for 30 mins followed by LPS stimulation and measured after 24 hrs by ELISA
experimental.endpoint: IC50 (nM)
Your answer should be a plain number; it is taken to be in nM.

Incoming: Check the records and state IC50 for COc1cc2c(O[C@H]3CC[C@@H](N)CC3)ncnc2cc1OCc1ccccc1
Outgoing: 530

---

# assay.comment: Tmax in male Sprague-Dawley rat at 10 mg/kg, po measured upto 24 hrs
# Assay type: ADME, organism-based
# measurement.setup: in vivo
experimental.endpoint: Tmax (h)
Kindly answer with a numeric value in h, unit omitted.

Incoming: Report Tmax for COc1cc2c(O[C@H]3CC[C@@H](N)CC3)ncnc2cc1OCc1ccccc1
Outgoing: 3

---

# assay.comment: AUC (0 to t) in male Sprague-Dawley rat at 1 mg/kg, iv administered via tail vein and measured upto 24 hrs
# Type: ADME, organism-based
# measurement.setup: in vivo
experimental.endpoint: AUC(0-t) at 24 h (ng·h/mL)
Quick note: give the figure in ng·h/mL, leave out the unit.

Incoming: For COc1cc2c(O[C@H]3CC[C@@H](N)CC3)ncnc2cc1OCc1ccccc1 , write its AUC(0-t) at 24 h.
Outgoing: 3800

---

# assay.comment: Cmax in male Sprague-Dawley rat at 10 mg/kg, po measured upto 24 hrs
# Format: ADME, organism-based
# measurement.setup: in vivo
experimental.endpoint: Cmax (ng/mL)
Write the number in ng/mL without appending the unit.

Incoming: Consider the compound COc1cc2c(O[C@H]3CC[C@@H](N)CC3)ncnc2cc1OCc1ccccc1 . State its measured Cmax.
Outgoing: 1250

---

# assay.comment: Cmax in male Sprague-Dawley rat at 1 mg/kg, iv administered via tail vein and measured upto 24 hrs
# Assay type: ADME, organism-based
# measurement.setup: in vivo
experimental.endpoint: Cmax (ng/mL)
Answer in ng/mL, number only, no unit symbol.

Incoming: Tell me measured Cmax for COc1cc2c(O[C@H]3CC[C@@H](N)CC3)ncnc2cc1OCc1ccccc1 please.
Outgoing: 6260

---

# assay.comment: Oral bioavailability in male Sprague-Dawley rat at 10 mg/kg measured upto 24 hrs
# Type: ADME, organism-based
# measurement.setup: in vivo
experimental.endpoint: bioavailability (%)
Supply the numeric figure in %, leaving out any unit text.

Incoming: Report bioavailability, nothing else, for this compound: COc1cc2c(O[C@H]3CC[C@@H](N)CC3)ncnc2cc1OCc1ccccc1
Outgoing: 28.1

---

# assay.comment: Cytotoxicity against mouse RAW264.7 cells assessed as cell viability by MTT assay
# Type: toxicity, cell-based
# Set-up: concentration or dose not given beside the values
# measurement.setup: read-out: Activity
Reported viability values for the following compounds.
Express your answer as a number followed by its unit.

Incoming: Provide measured viability value, entry: COc1cc2ncnc(Oc3cccc(NC(=O)N[C@H]4CC[C@@H](NC(=O)CCC5CCCC5)CC4)c3)c2cc1OC
Outgoing: 117%

Incoming: Find the measured viability of N[C@H]1CC[C@@H](OC(=O)c2nn(-c3ccccc3)ccc2=O)CC1 and report it.
Outgoing: 107%

Incoming: Return value of viability for input COc1cc2ncnc(N[C@H]3CC[C@@H](N)CC3)c2cc1OC , no commentary.
Outgoing: 91.1%

Incoming: Please report the measured viability for COc1cc2nc(Cl)nc(O[C@H]3CC[C@@H](N)CC3)c2cc1OC
Outgoing: 105%

---

# assay.comment: Cytotoxicity against mouse RAW264.7 cells assessed as cell viability by MTT assay
# Assay type: toxicity, cell-based
# Design: concentration or dose not given beside the values
# measurement.setup: read-out: Activity
Here the recorded viability is given for each entry.
Provide the reading as a plain figure in %.

Some solved cases for reference:
smiles.structure: COc1cc2ncnc(Oc3cccc(NC(=O)N[C@H]4CC[C@@H](NC(=O)OC(C)(C)C)CC4)c3)c2cc1OC
viability / %: 92.1
//
smiles.structure: CCN1CCN(CCOc2ncnc3cc(OC)c(OC)cc23)CC1
viability / %: 90.1

Incoming: Determine its reported viability: COc1cc2ncnc(Oc3cccc(NC(=O)N[C@H]4CC[C@@H](NC(=O)c5ccc(F)cc5Cl)CC4)c3)c2cc1OC
Outgoing: 130

Incoming: For the compound COc1cc2ncnc(N[C@H]3CC[C@@H](NCCO)CC3)c2cc1OC , give its measured viability value.
Outgoing: 99.7

Incoming: Note viability for the compound shown: Cn1c(CNC(=O)O[C@H]2CC[C@@H](N)CC2)nc2ccccc21
Outgoing: 90.1

Incoming: Tell me viability reported for COc1cc2ncnc(Oc3cccc(NC(=O)O[C@H]4CC[C@@H](N)CC4)c3)c2cc1OC
Outgoing: 96.5

Incoming: Consider the compound COc1cc2ncnc(N[C@H]3CC[C@@H](NS(=O)(=O)c4ccc(C)cc4)CC3)c2cc1OC . State its measured viability.
Outgoing: 104

Incoming: Using the record for COc1cc2ncnc(Oc3cccc(NC(=O)N[C@H]4CC[C@@H](NS(=O)(=O)c5ccccc5)CC4)c3)c2cc1OC , state its measured viability.
Outgoing: 112

---

# assay.comment: Cytotoxicity against mouse RAW264.7 cells assessed as cell viability by MTT assay
# Type: toxicity, cell-based
# Set-up: concentration or dose not given beside the values
# measurement.setup: read-out: Activity
Reported viability values follow for various molecules
State the result as a value with its unit after it.

Example entries begin here.
smiles.structure: COc1cc2ncnc(Oc3cccc(NC(=O)N[C@H]4CC[C@@H](NC(=O)c5cccc(F)c5)CC4)c3)c2cc1OC
experimental.endpoint: viability
experimental.value: 121%
//
smiles.structure: Cn1c(CNC(=O)O[C@H]2C[C@@H](N)C2)nc2ccccc21
experimental.endpoint: viability
experimental.value: 97.1%
//
smiles.structure: COc1cc2ncnc(N[C@H]3CC[C@@H](NC(=O)c4ccc(F)cc4)CC3)c2cc1OC
experimental.endpoint: viability
experimental.value: 102%
//
smiles.structure: CN[C@H]1CC[C@@H](Nc2ncnc3cc(OC)c(OC)cc23)CC1
experimental.endpoint: viability
experimental.value: 98.2%

Incoming: # return recorded viability for input N[C@H]1CC[C@@H](Oc2ncnc3cc(Cl)ccc23)CC1
Outgoing: 98.8%

Incoming: Identify measured viability corresponding to COc1cc2ncnc(N[C@H]3CC[C@@H](NCCCN(C)C)CC3)c2cc1OC
Outgoing: 96.5%

Incoming: Give the measured viability for COc1cc2c(O[C@H]3CC[C@@H](N)CC3)ncnc2cc1OCc1ccccc1
Outgoing: 98.2%

Incoming: Provide one value: measured viability of COc1cc2ncnc(NCCc3cccs3)c2cc1OC
Outgoing: 88.1%
